# target_or_system: human mGluR5a receptor (Homo sapiens, UniProt P41594)
# Construct: cDNA subcloned into pcDNA3.1(-)
# Sequence (P41594 21-1180 isoform P41594-2 limits assumed): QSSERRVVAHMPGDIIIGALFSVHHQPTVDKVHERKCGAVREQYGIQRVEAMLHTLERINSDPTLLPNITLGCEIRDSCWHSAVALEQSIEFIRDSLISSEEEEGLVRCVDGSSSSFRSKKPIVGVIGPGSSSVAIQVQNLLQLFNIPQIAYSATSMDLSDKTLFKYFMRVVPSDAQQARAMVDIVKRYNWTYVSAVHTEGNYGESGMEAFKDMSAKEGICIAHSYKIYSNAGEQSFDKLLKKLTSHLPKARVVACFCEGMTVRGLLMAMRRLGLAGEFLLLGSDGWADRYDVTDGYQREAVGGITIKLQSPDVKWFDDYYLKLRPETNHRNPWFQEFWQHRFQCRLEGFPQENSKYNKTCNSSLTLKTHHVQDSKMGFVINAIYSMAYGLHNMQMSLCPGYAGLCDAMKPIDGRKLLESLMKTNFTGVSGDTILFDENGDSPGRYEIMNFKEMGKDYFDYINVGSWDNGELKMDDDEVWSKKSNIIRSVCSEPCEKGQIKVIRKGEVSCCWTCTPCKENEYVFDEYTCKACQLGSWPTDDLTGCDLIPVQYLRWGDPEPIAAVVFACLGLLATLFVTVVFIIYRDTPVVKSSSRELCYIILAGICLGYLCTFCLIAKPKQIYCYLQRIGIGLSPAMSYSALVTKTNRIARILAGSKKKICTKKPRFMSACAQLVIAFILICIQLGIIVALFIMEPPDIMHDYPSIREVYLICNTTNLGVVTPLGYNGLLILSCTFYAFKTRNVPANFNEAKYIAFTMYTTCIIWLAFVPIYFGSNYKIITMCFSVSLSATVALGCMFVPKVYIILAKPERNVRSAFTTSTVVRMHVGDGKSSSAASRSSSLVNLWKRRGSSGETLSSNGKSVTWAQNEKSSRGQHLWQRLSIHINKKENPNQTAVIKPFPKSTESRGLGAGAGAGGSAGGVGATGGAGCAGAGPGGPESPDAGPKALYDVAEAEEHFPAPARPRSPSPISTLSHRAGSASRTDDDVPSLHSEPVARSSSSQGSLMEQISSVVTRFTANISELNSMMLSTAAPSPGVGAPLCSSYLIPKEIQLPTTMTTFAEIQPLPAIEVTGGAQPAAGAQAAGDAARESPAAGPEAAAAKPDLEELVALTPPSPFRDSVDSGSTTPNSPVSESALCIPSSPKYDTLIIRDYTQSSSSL
# protocol_summary: Cell-based functional Ca2+ mobilization assay (FDSS), potentiation of glutamate EC20 response
# condition: maximum % effect in concentration-response curve, as percent of response to maximally effective glutamate
# Description: Human embryonic kidney (HEK) cells transfected with rat mGluR5 were plated in clear bottom assay plates for assay in a Functional Drug Screening System (FDSS). […] After establishment of a fluorescence baseline for twelve seconds, the compounds of the present invention were added to the cells, and the response in cells was measured. […] Five minutes later, an mGluR5 agonist (e.g., glutamate, 3,5-dihydroxyphenylglycine, or quisqualate) was added to the cells, and the response of the cells was measured. […]
Give Emax for every item shown.

For the compound shown here, O=c1c2nc(COc3ccccc3)nn2ccn1-c1ccc(F)cc1 , give the reported Emax.
52%

For the compound shown here, O=C1c2cc(COc3ccc(F)cn3)nn2CCN1c1ccc(F)cc1 , give the reported Emax.
52%

For the compound shown here, Cc1nc(N2C(=O)c3cc(COc4ccccc4)nn3C[C@@H]2C)ccc1F , give the reported Emax.
59%

For the compound shown here, O=C1c2cc(COc3ccccc3)nn2CCN1c1ccc(F)c(F)c1 , give the reported Emax.
80%

For the compound shown here, C[C@@H]1Cn2nc(COc3ccccc3)cc2C(=O)N1c1ccc(F)cn1 , give the reported Emax.
66%

For the compound shown here, O=C1c2cc(COc3ccccc3)nn2CCN1c1nccc(N2CCCC2)n1 , give the reported Emax.
56%

For the compound shown here, Cc1cnccc1OCc1cc2n(n1)CCN(c1ccc(F)cc1)C2=O , give the reported Emax.
45%

For the compound shown here, O=C1c2cc(COc3ccccc3)nn2CCN1c1cnc2ccccc2c1 , give the reported Emax.
71%

For the compound shown here, COc1ncccc1N1CCn2nc(COc3ccc(F)cc3)cc2C1=O , give the reported Emax.
66%
